Record: Ki reported on 5-HT2A receptor (Rattus norvegicus, UniProt P14842).
Sequence (P14842 whole entry): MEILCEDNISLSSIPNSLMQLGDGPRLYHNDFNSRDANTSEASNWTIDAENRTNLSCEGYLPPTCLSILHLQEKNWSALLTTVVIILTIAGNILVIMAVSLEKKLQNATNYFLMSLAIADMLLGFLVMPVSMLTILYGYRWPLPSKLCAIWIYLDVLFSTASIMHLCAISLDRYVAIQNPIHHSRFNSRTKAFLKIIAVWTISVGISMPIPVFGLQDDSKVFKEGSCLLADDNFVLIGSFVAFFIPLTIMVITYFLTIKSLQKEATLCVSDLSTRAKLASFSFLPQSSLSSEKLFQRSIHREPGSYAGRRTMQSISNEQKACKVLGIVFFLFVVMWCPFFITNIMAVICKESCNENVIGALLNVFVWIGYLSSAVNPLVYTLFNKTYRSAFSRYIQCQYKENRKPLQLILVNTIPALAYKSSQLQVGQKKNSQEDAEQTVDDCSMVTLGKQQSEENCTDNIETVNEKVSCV
// return numeric value only (unit: nM, not printed)

Hello, I am looking for reported Ki with 5-HT2A receptor (Rattus norvegicus, UniProt P14842) for COc1ccc(Cc2c(N)nc(SCCN3CCN(Cc4ccccc4)CC3)nc2N)cc1 [Example 22] . Could you help?
56

Would you kindly repeat that for COc1cc(Cc2c(N)nc(SCCN3CCN(Cc4ccc([N+](=O)[O-])cc4)CC3)nc2N)cc(OC)c1OC [Example 68] ?
21

Would you kindly repeat that for Nc1nc(SCCN2CCN(Cc3ccc([N+](=O)[O-])cc3)CC2)nc(N)c1Cc1ccccc1 [Example 14] ?
78

Would you kindly repeat that for Nc1cc(N)nc(SCCN2CCN(Cc3ccccc3Cl)CC2)n1 [Example 5] ?
16

Would you kindly repeat that for COc1ccc(Cc2c(N)nc(SCCN3CCN(Cc4ccccc4Cl)CC3)nc2N)cc1 [Example 72] ?
24

Would you kindly repeat that for COc1ccc(Cc2c(N)nc(SCCN3CCN(Cc4cccc(C#N)c4)CC3)nc2N)cc1 [Example 26] ?
48

###

Could you please report measured Ki for the items listed next?
target-under-test: 5-HT2C receptor (Sus scrofa)
Sequence (K7GSR7 1-457): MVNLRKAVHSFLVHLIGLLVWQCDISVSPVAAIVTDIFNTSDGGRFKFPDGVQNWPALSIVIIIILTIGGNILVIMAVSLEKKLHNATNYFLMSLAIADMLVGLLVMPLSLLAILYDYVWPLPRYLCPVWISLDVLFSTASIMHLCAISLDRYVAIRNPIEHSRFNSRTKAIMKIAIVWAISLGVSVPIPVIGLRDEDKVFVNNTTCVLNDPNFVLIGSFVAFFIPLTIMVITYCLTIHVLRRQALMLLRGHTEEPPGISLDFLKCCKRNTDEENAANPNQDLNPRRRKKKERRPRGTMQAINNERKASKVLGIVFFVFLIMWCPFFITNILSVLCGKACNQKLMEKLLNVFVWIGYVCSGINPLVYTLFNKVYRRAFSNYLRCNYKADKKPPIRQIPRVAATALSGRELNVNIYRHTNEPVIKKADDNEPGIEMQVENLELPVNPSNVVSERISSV
// return numeric value only (unit: nM, not printed)

Reported Ki for COc1ccc(Cc2c(N)nc(SCCN3CCN(Cc4cccc(C#N)c4)CC3)nc2N)cc1 : what is it?
45

Would you kindly repeat that for COc1ccc(Cc2c(N)nc(SCCN3CCN(Cc4cccc(OC)c4)CC3)nc2N)cc1 ?
50

Would you kindly repeat that for COc1ccccc1Cc1c(N)nc(SCCN2CCN(Cc3cccc(C(F)(F)F)c3)CC2)nc1N ?
18

Would you kindly repeat that for CN(C)c1ccc(Cc2c(N)nc(SCCN3CCN(Cc4ccccc4Cl)CC3)nc2N)cc1 ?
24

###

Could you please report measured pKi for the items listed next?
target-under-test: 5-HT2C receptor (Sus scrofa, UniProt K7GSR7)
pKi: −log10 of the molar value.

Reported pKi for Nc1nc(SCCN2CCN(Cc3ccc([N+](=O)[O-])cc3)CC2)nc(N)c1Cc1ccccc1O [Example 19] : what is it?
< 7.00

Would you kindly repeat that for Nc1nc(SCCN2CCN(Cc3ccc([N+](=O)[O-])cc3)CC2)nc(N)c1Cc1ccc(F)cc1 [Example 20] ?
< 7.00

Would you kindly repeat that for Nc1nc(SCCN2CCN(Cc3cccc(C(F)(F)F)c3)CC2)nc(N)c1Cc1ccc(F)cc1 [Example 21] ?
7.41

Would you kindly repeat that for Cc1ccc(CN2CCN(CCSc3nc(N)c(Cc4ccccc4Cl)c(N)n3)CC2)cc1 [Example 40] ?
< 7.00

###

target-under-test: 5-HT2A receptor (Rattus norvegicus)
Construct: rat brain frontal cortex membrane preparation; from tissue; host or cells: rat brain frontal cortex membrane preparation
experiment-summary: 5-HT2A receptor binding ([3H]ketanserine, rat brain frontal cortex membrane preparation)
experimental-context: tritiated ketanserine, 37° C., read-out: Inhibition of receptor binding of the radioactive ligand, 5-HT2A (Ki)
# note: exactly 50 nM is not below, so it is Condition not met; use Condition met for Ki strictly under it

Dear colleague, could you confirm whether Ki of Nc1nc(SCCN2CCN(Cc3ccc([N+](=O)[O-])cc3)CC2)nc(N)c1Cc1ccccc1O falls below 50 nM? Thanks.
Condition met

Would you kindly repeat that for COc1cccc(CN2CCN(CCSc3nc(N)c(Cc4ccccc4OC)c(N)n3)CC2)c1 ?
Condition not met

Would you kindly repeat that for COc1ccc(CN2CCN(CCSc3nc(N)c(Cc4cc(OC)c(OC)c(OC)c4)c(N)n3)CC2)cc1 ?
Condition not met

Would you kindly repeat that for CN(C)c1ccc(Cc2c(N)nc(SCCN3CCN(Cc4cccc(Cl)c4)CC3)nc2N)cc1 ?
Condition met

Would you kindly repeat that for COc1cccc(CN2CCN(CCSc3nc(N)c(Cc4ccccc4)c(N)n3)CC2)c1 ?
Condition not met

Would you kindly repeat that for CN(C)c1ccc(Cc2c(N)nc(SCCN3CCN(Cc4ccccc4Cl)CC3)nc2N)cc1 ?
Condition met

Would you kindly repeat that for COc1cccc(CN2CCN(CCSc3nc(N)c(Cc4ccccc4Cl)c(N)n3)CC2)c1 ?
Condition not met

Would you kindly repeat that for Cc1ccc(CN2CCN(CCSc3nc(N)c(Cc4ccccc4Cl)c(N)n3)CC2)cc1 ?
Condition met

###

target-under-test: 5-HT2A receptor (Oryctolagus cuniculus)
Construct: The thoracic aorta segment after the aortic arch was removed
Sequence (G1SYA7 1-469): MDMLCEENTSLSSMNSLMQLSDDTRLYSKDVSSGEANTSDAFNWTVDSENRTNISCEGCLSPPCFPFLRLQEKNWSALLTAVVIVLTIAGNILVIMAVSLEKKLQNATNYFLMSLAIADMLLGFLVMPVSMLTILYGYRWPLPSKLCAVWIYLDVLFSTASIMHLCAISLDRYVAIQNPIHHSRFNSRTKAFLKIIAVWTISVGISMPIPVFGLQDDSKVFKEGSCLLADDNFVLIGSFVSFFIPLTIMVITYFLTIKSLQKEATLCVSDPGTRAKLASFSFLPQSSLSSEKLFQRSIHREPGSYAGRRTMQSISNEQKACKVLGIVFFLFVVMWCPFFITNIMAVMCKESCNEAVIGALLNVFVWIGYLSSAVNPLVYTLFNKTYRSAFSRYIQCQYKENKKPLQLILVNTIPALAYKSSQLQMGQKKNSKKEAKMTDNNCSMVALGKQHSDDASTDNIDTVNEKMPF
experiment-summary: 5-HT2A receptor antagonistic effect: inhibition of 5-HT-evoked contractions on isolated rabbit aortic strips
experimental-context: 5-HT 10^-6 M; phenoxybenzamine 10^-8 M; tranylcypramine 10^-7 M; 10 minutes incubation
Could you please report measured pIC50 for the items listed next?
Quick note: pIC50 values are minus log10 of concentrations in mol/L.

Reported pIC50 for Nc1cc(N)nc(SCCN2CCN(Cc3ccccc3Cl)CC2)n1 [Example 5] : what is it?
6.60

Would you kindly repeat that for Nc1nc(SCCN2CCN(Cc3ccccc3Cl)CC2)nc(N)c1Cc1ccccc1Cl [Example 45] ?
6.37

Would you kindly repeat that for COc1ccc(Cc2c(N)nc(SCCN3CCN(Cc4ccccc4F)CC3)nc2N)cc1 [Example 25] ?
6.55

Would you kindly repeat that for CN(C)c1ccc(Cc2c(N)nc(SCCN3CCN(Cc4cccc(Cl)c4)CC3)nc2N)cc1 [Example 56] ?
6.05

Would you kindly repeat that for COc1cc(Cc2c(N)nc(SCCN3CCN(Cc4ccc([N+](=O)[O-])cc4)CC3)nc2N)cc(OC)c1OC [Example 68] ?
6.11

Would you kindly repeat that for Nc1nc(SCCN2CCN(Cc3ccc([N+](=O)[O-])cc3)CC2)nc(N)c1Cc1ccccc1 [Example 14] ?
5.22

Would you kindly repeat that for Nc1nc(SCCN2CCN(Cc3ccccc3Cl)CC2)nc(N)c1Cc1ccccc1 [Example 13] ?
6.92

Would you kindly repeat that for COc1ccc(Cc2c(N)nc(SCCN3CCN(Cc4ccccc4C)CC3)nc2N)cc1 [Example 24] ?
6.62

Would you kindly repeat that for CN(C)c1ccc(Cc2c(N)nc(SCCN3CCN(Cc4ccccc4C#N)CC3)nc2N)cc1 [Example 54] ?
6.24

Would you kindly repeat that for Nc1cc(N)nc(SCCN2CCN(Cc3ccc(F)cc3)CC2)n1 [Example 3] ?
6.02

Would you kindly repeat that for Nc1nc(SCCN2CCN(Cc3ccc([N+](=O)[O-])cc3)CC2)nc(N)c1Cc1ccc(F)cc1 [Example 20] ?
5.82

Would you kindly repeat that for COc1cc(Cc2c(N)nc(SCCN3CCN(Cc4ccccc4Cl)CC3)nc2N)cc(OC)c1OC [Example 67] ?
7.41

Would you kindly repeat that for CN(C)c1ccc(Cc2c(N)nc(SCCN3CCN(Cc4ccccc4F)CC3)nc2N)cc1 [Example 53] ?
6.33

Would you kindly repeat that for COc1cccc(CN2CCN(CCSc3nc(N)c(Cc4cc(OC)c(OC)c(OC)c4)c(N)n3)CC2)c1 [Example 65] ?
6.77

Would you kindly repeat that for COc1cc(Cc2c(N)nc(SCCN3CCN(Cc4cccc(C(F)(F)F)c4)CC3)nc2N)cc(OC)c1OC [Example 69] ?
7.02

Would you kindly repeat that for COc1cccc(CN2CCN(CCSc3nc(N)c(Cc4ccccc4OC)c(N)n3)CC2)c1 [Example 31] ?
6.14

Would you kindly repeat that for CN(C)c1ccc(Cc2c(N)nc(SCCN3CCN(Cc4ccc([N+](=O)[O-])cc4)CC3)nc2N)cc1 [Example 57] ?
6.05

Would you kindly repeat that for COc1ccc(Cc2c(N)nc(SCCN3CCN(Cc4ccccc4)CC3)nc2N)cc1 [Example 22] ?
6.38

This collection of values is drawn from patent US6130215A.
